Data origin: PubChem BioAssay (NCI)

Tested on: A549 NSCLC
Assay: NCI tumour cell line growth inhibition, 48 h
parameter: TGI

What value of TGI has been recorded for this entry: Nc1nc(N)c(N=Nc2ccccc2)c(-c2ccccc2)n1 22.8 µM

Subsequent entry: C1CSC(Sc2nc(SC3=NCCS3)nc(SC3=NCCS3)n2)=N1 > 100 µM

// next record CC(C)OC(=O)[C@@H]1OC(C)(C)O[C@H]1C(=O)OC(C)C > 100 µM

Could you do the same for CNCCCCN(C)/[N+]([O-])=N\O , please? > 100 µM

###

Tested on: ACHN renal
Experiment: NCI tumour cell line growth inhibition, 48 h
parameter: TGI

I'd like to know its TGI. The compound in question is COC1=C(OC)C(O)(c2ccccc2)C1=O (stereo not drawn) > 100 µM

Same read-out for CCC(=O)/C=C/c1ccccc1 ? > 100 µM

Param item: C[n+]1c(-c2ccccc2)c2cc(N)ccc2c2ccccc21 > 100 µM

###

Test system: A549 NSCLC
Experiment: NCI tumour cell line growth inhibition, 48 h
Assignment: determine reported GI50 for the given compounds.

Recorded GI50 of Nc1nc(N)c(N=Nc2ccccc2)c(-c2ccccc2)n1 , please. 6.85 µM

And O=C(Nc1nc(-c2ccc(Cl)cc2)cs1)c1cc(-c2ccc(Br)cc2)nc2ccc(Cl)cc12 ? 43.8 µM

COc1cc2c(cc1OCCCCCn1c(-c3ccc(OCc4ccccc4)cc3)nc3cc(N4CCOCC4)ccc31)N=C[C@@H]1CCCN1C2=O ? 2.43 µM

###

System: SK-MEL-28 melanoma
Test: NCI tumour cell line growth inhibition, 48 h
Residues, ends and D or L forms follow the SMILES beside them. *: point of attachment. Boc = CC(C)(C)OC(=O)*; OBn = c1ccc(CO*)cc1
Could you please report measured TGI for the items listed next?

// returns reported TGI for input Cc1[nH]c(=O)[nH]c(=S)c1C(=O)NC1C2CCCCC2NC2CCCCC21 (stereo not drawn) 23.8 µM

Same question, COc1ccc(/C=C/C(=O)c2cc3c(N)c(C(=O)Nc4cccc(Cl)c4C)sc3nc2C)cc1 this time > 50 µM

Now consider CC(C)CC(NC(=O)OC(C)(C)C)C(=O)NC(CC(=O)OCc1ccccc1)C(N)=O (stereo not drawn) (Boc-Leu-Asp(OBn)-NH2; configuration not given here) . > 100 µM

// query: O/N=C1/C(=C/c2ccc(Cl)c(Cl)c2)CCCC1C(NO)c1ccc(Cl)c(Cl)c1 (stereo not drawn) 34.5 µM

// next record NCCCCCCCCCCn1c2c(c3ccccc3c1=O)C(=O)c1ccccc1-2 14.8 µM

Lookup CCN(CC)Cc1cc(Nc2c3ccc(Cl)cc3nc3ccc(OC)cc23)ccc1O 3.26 µM

Same question, O=C(N[C@@H](c1ccccc1)[C@@H](O)C(=O)OCc1ccc2c(c1)OCO2)c1ccccc1 this time > 100 µM

Entry to check: O=[N+]([O-])c1ccc2c(c1)Sc1ccccc1N2 > 100 µM

Okay, and CC(=O)OC1C2CCC1C1C2N=NN1c1ccc([N+](=O)[O-])cc1 (stereo not drawn) ? > 100 µM

Could you do the same for COc1cccc(/C=N/[N-]C(=O)c2ccncc2)c1[O-].[Ni+2].[OH3+] , please? > 100 µM

# repeat for O=C1C(Cl)=C(Cl)C(=O)C2=C1C1c3ccccc3C2c2ccccc21 > 100 µM

Record: Cn1ccc(=O)c2c(O)c3ccccc3c(O)c21 > 100 µM

Next molecule up: CCn1cc(C(=O)O)c(=O)c2cc(F)c(N3CCN(CN4C(=O)/C(=N\c5ncc(Cc6cc(OC)c(OC)c(OC)c6)c(N)n5)c5cc(Cl)ccc54)CC3)cc21 > 100 µM
